Biological target: Retinoic acid receptor RXR-alpha (Homo sapiens, UniProt P19793)
Sequence (P19793 whole entry): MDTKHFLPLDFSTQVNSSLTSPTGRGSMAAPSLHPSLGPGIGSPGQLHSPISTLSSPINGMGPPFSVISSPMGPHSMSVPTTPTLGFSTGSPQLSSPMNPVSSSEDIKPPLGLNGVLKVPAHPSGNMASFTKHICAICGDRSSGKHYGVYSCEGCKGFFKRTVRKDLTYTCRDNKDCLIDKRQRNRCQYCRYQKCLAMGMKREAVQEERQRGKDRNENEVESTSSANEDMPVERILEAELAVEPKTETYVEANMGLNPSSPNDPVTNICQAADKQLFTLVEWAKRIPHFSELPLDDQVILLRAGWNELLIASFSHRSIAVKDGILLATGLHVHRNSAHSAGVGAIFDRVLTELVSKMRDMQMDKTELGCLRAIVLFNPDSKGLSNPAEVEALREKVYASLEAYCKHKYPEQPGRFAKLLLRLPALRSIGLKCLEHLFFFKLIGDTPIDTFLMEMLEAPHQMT
Experiment: Transactivation of human Gal4-fused RXRalpha LBD expressed in HEK293T cells after 12 to 14 hrs by dual-glo luciferase assay
Quantity Measured: EC50 (µM)

Solved cases below.
Need EC50, item `CC(C)=C(C)c1ccc(-c2cnc(CCC(=O)O)o2)cc1`
8

Need EC50, item `Cc1ccc(C)n1-c1ccc(CCCC(=O)O)cc1`
4.3

Need EC50, item `Cc1ccc(-n2c(C)c(C)c3c2CCC(F)(F)C3)cc1O`
23.6

Need EC50, item C=C[C@@]1(C)CC[C@H]2C(=CC[C@@H]3[C@]2(C)CCC[C@@]3(C)C(=O)O)C1 [ISOPIMARIC ACID]
26

P. Cc1c2c(n(C[C@H]3CC[C@H](C(=O)O)CC3)c1C)CCC(F)(F)C2
Q. CC(C)c1ccc2c(c1)CC[C@H]1[C@](C)(C(=O)O)CCC[C@]21C [DEHYDROABIETIC ACID]
Between the two listed entries P and Q , which has its EC50 at the higher number? Returns: label corresponding to the selected item.
Q

====

Molecular target: Retinoic acid receptor RXR-gamma (Homo sapiens)
Sequence (P48443 whole entry): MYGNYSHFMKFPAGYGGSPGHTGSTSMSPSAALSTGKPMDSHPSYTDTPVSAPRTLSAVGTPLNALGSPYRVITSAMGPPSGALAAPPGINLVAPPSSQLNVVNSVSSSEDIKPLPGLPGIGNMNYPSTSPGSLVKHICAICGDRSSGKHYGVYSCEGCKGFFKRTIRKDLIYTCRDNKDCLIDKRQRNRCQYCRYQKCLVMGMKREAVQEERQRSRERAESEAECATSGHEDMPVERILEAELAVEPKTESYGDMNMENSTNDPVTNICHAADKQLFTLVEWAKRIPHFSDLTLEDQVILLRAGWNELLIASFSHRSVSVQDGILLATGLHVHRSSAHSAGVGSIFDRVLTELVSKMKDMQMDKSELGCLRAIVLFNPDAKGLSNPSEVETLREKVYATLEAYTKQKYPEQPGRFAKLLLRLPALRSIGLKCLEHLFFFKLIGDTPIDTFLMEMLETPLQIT
Experiment: Transactivation of human Gal4-fused RXRgamma LBD expressed in HEK293T cells after 12 to 14 hrs by dual-glo luciferase assay
pEC50: −log10 of the molar value.
Quantity Measured: pEC50

Solved cases below.
Lab request: please report pEC50 under test system Retinoic acid receptor RXR-gamma (Homo sapiens) for `Cc1c2c(n(-c3ccc(CCCC(=O)O)cc3)c1C)CCC(F)(F)C2`
5.60

Lab request: please report pEC50 under test system Retinoic acid receptor RXR-gamma (Homo sapiens) for `C=C[C@@]1(C)CC[C@H]2C(=CC[C@@H]3[C@]2(C)CCC[C@@]3(C)C(=O)O)C1`
4.48

Lab request: please report pEC50 under test system Retinoic acid receptor RXR-gamma (Homo sapiens) for `Cc1ccc(-n2c(C)c(C)c3c2CCC(F)(F)C3)cc1O`
4.57

Lab request: please report pEC50 under test system Retinoic acid receptor RXR-gamma (Homo sapiens) for `Cc1c2c(n(C[C@H]3CC[C@H](C(=O)O)CC3)c1C)CCC(F)(F)C2`
4.30

Lab request: please report pEC50 under test system Retinoic acid receptor RXR-gamma (Homo sapiens) for CC(C)c1ccc2c(c1)CC[C@H]1[C@](C)(C(=O)O)CCC[C@]21C [DEHYDROABIETIC ACID]
4.38

1. Cc1ccc(C)n1-c1ccc(CCCC(=O)O)cc1
2. CC(C)=C(C)c1ccc(-c2cnc(CCC(=O)O)o2)cc1
Between the two listed entries 1 and 2 , which has its pEC50 at the higher number? Returns: label corresponding to the selected item.
2
(2: 4.85, 1: 4.61)

====

Biological target: UniProt P48443
Assay: Transactivation of human Gal4-fused RXRgamma LBD expressed in HEK293T cells after 12 to 14 hrs by dual-glo luciferase assay relative to bexarotene
Assay type: cell-based
Quantity Measured: fold change (FC)

Need fold change (FC), item `Cc1c2c(n(-c3ccc(CCCC(=O)O)cc3)c1C)CCC(F)(F)C2`
7

Need fold change (FC), item CC(C)c1ccc2c(c1)CC[C@H]1[C@](C)(C(=O)O)CCC[C@]21C [DEHYDROABIETIC ACID]
6

Need fold change (FC), item `Cc1ccc(-n2c(C)c(C)c3c2CCC(F)(F)C3)cc1O`
11

Need fold change (FC), item CC1=C2[C@H](/C=C(\C)C(=O)O)CC[C@@H](C)[C@H]2CC1 [VALERENIC ACID]
4

Need fold change (FC), item C=C[C@@]1(C)CC[C@H]2C(=CC[C@@H]3[C@]2(C)CCC[C@@]3(C)C(=O)O)C1 [ISOPIMARIC ACID]
7

Need fold change (FC), item `Cc1ccc(C)n1-c1ccc(CCCC(=O)O)cc1`
11

1. Cc1c2c(n(-c3ccc(CC(=O)O)cc3)c1C)CCC(F)(F)C2
2. CC(C)=C(C)c1ccc(-c2cnc(CCC(=O)O)o2)cc1
3. Cc1c2c(n(C[C@H]3CC[C@H](C(=O)O)CC3)c1C)CCC(F)(F)C2
// sort entries: fold change (FC), high to low # list labels per requested ordering
1, 3, 2

====

Molecular target: Retinoic acid receptor RXR-beta (Homo sapiens)
Assay: Transactivation of human Gal4-fused RXRbeta LBD expressed in HEK293T cells after 12 to 14 hrs by dual-glo luciferase assay relative to bexarotene
Format: cell-based
Quantity Measured: fold change (FC)

Solved cases below.
Need fold change (FC), item `Cc1c2c(n(-c3ccc(CC(=O)O)cc3)c1C)CCC(F)(F)C2`
121

Need fold change (FC), item `Cc1ccc(-n2c(C)c(C)c3c2CCC(F)(F)C3)cc1O`
30

Need fold change (FC), item C=C[C@@]1(C)CC[C@H]2C(=CC[C@@H]3[C@]2(C)CCC[C@@]3(C)C(=O)O)C1 [ISOPIMARIC ACID]
7

Need fold change (FC), item `Cc1c2c(n(-c3ccc(CCCC(=O)O)cc3)c1C)CCC(F)(F)C2`
64

Need fold change (FC), item `CC(C)=C(C)c1ccc(-c2cnc(CCC(=O)O)o2)cc1`
3.2

A. Cc1ccc(C)n1-c1ccc(CCCC(=O)O)cc1
B. CC1=C2[C@H](/C=C(\C)C(=O)O)CC[C@@H](C)[C@H]2CC1 [VALERENIC ACID]
// task: argmin of fold change (FC) over [ A , B ] Returns: label corresponding to the selected item.
A
(A: 48, B: 69)

P. Cc1c2c(n(C[C@H]3CC[C@H](C(=O)O)CC3)c1C)CCC(F)(F)C2
Q. CC(C)c1ccc2c(c1)CC[C@H]1[C@](C)(C(=O)O)CCC[C@]21C [DEHYDROABIETIC ACID]
Between the two listed entries P and Q , which has its fold change (FC) at the higher number? Returns: label corresponding to the selected item.
P

====

Molecular target: Retinoic acid receptor RXR-beta (Homo sapiens, UniProt P28702)
Sequence (P28702 whole entry, the tested form may be a part): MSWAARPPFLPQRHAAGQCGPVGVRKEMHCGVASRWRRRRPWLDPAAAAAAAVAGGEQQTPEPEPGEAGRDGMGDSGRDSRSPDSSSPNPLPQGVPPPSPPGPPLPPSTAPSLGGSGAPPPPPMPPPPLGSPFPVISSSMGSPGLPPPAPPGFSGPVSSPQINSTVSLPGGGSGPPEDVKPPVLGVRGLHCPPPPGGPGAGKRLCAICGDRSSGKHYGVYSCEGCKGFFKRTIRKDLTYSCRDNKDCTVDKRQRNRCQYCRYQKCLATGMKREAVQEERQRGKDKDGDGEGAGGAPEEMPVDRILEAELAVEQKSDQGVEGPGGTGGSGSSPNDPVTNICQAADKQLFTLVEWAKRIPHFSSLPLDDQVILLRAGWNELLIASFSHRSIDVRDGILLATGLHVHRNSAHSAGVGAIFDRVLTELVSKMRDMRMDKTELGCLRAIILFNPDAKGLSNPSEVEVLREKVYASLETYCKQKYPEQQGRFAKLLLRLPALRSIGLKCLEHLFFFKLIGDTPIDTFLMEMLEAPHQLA
Experiment: Transactivation of human Gal4-fused RXRbeta LBD expressed in HEK293T cells after 12 to 14 hrs by dual-glo luciferase assay
Quantity Measured: EC50 (µM)

Solved cases below.
Lab request: please report EC50 under test system Retinoic acid receptor RXR-beta (Homo sapiens, UniProt P28702) for `Cc1ccc(-n2c(C)c(C)c3c2CCC(F)(F)C3)cc1O`
13.9

Lab request: please report EC50 under test system Retinoic acid receptor RXR-beta (Homo sapiens, UniProt P28702) for CC(C)c1ccc2c(c1)CC[C@H]1[C@](C)(C(=O)O)CCC[C@]21C [DEHYDROABIETIC ACID]
42

Lab request: please report EC50 under test system Retinoic acid receptor RXR-beta (Homo sapiens, UniProt P28702) for `Cc1ccc(C)n1-c1ccc(CCCC(=O)O)cc1`
6.6

Lab request: please report EC50 under test system Retinoic acid receptor RXR-beta (Homo sapiens, UniProt P28702) for `Cc1c2c(n(C[C@H]3CC[C@H](C(=O)O)CC3)c1C)CCC(F)(F)C2`
27.1

Lab request: please report EC50 under test system Retinoic acid receptor RXR-beta (Homo sapiens, UniProt P28702) for `Cc1c2c(n(-c3ccc(CCCC(=O)O)cc3)c1C)CCC(F)(F)C2`
2.2

P. CC(C)=C(C)c1ccc(-c2cnc(CCC(=O)O)o2)cc1
Q. C=C[C@@]1(C)CC[C@H]2C(=CC[C@@H]3[C@]2(C)CCC[C@@]3(C)C(=O)O)C1 [ISOPIMARIC ACID]
Between the two listed entries P and Q , which has its EC50 at the higher number? Returns: label corresponding to the selected item.
Q
